In this section we review reported melting point values for a set of molecules.

Consider the worked cases shown below.
Consider CCOC(=O)c1cc2ccc(OCc3cn(CCO[C@H]4O[C@@H]5O[C@@]6(C)CC[C@H]7[C@H](C)CC[C@@H]([C@H]4C)[C@@]57OO6)nn3)cc2oc1=O [12e] . Its measured melting point is 71 to 73 °C

Consider Cc1c(C)c2ccc(OCc3cn(CCCO[C@H]4O[C@@H]5O[C@@]6(C)CC[C@H]7[C@H](C)CC[C@@H]([C@H]4C)[C@@]57OO6)nn3)cc2oc1=O [13c] . Its measured melting point is 68 to 70 °C

Consider Cc1c(Cl)c(=O)oc2cc(OCc3cn(CCCO[C@H]4O[C@@H]5O[C@@]6(C)CC[C@H]7[C@H](C)CC[C@@H]([C@H]4C)[C@@]57OO6)nn3)ccc12 [13d] . Its measured melting point is 71 to 73 °C

Consider Cc1cc(=O)oc2cc(OCc3cn(CCO[C@H]4O[C@@H]5O[C@@]6(C)CC[C@H]7[C@H](C)CC[C@@H]([C@H]4C)[C@@]57OO6)nn3)ccc12 [12a] . Its measured melting point is 79 to 81 °C

Consider Cc1c(C)c2ccc(OCc3cn(CCO[C@H]4O[C@@H]5O[C@@]6(C)CC[C@H]7[C@H](C)CC[C@@H]([C@H]4C)[C@@]57OO6)nn3)cc2oc1=O [12c] . Its measured melting point is 84 to 86 °C

Pending molecule:
Consider CCOC(=O)c1cc2ccc(OCc3cn(CCCO[C@H]4O[C@@H]5O[C@@]6(C)CC[C@H]7[C@H](C)CC[C@@H]([C@H]4C)[C@@]57OO6)nn3)cc2oc1=O [13e] . Its measured melting point is 79 to 81 °C

----------
- System: HCT-116 (human colorectal cancer cell line)
- ASSAY_REMARKS: MTT cytotoxicity assay, HCT-116 under anoxia or normoxia
- Type: cell-based
- APPLIED_CONDITIONS: Homo sapiens; HCT-116, anoxia 24 h then normoxia 72 h, MTT; read-out: IC50 HCT-116 Anoxia
In this section we review reported pIC50 values for a set of compounds.
In simple prose, pIC50 is minus the logarithm base ten of a concentration in moles per litre.

Consider Cc1c(C)c2ccc(OCc3cn(CCO[C@H]4O[C@@H]5O[C@@]6(C)CC[C@H]7[C@H](C)CC[C@@H]([C@H]4C)[C@@]57OO6)nn3)cc2oc1=O [12c] . Its measured pIC50 is 4.92

Consider Cc1c(C)c2ccc(OCc3cn(CCCO[C@H]4O[C@@H]5O[C@@]6(C)CC[C@H]7[C@H](C)CC[C@@H]([C@H]4C)[C@@]57OO6)nn3)cc2oc1=O [13c] . Its measured pIC50 is 5.67

Consider Cc1c(Cl)c(=O)oc2cc(OCc3cn(CCO[C@H]4O[C@@H]5O[C@@]6(C)CC[C@H]7[C@H](C)CC[C@@H]([C@H]4C)[C@@]57OO6)nn3)ccc12 [12d] . Its measured pIC50 is 5.23

Consider C[C@H]1[C@@H](OCc2cn(CCCOc3ccc4c(C(F)(F)F)cc(=O)oc4c3)nn2)O[C@@H]2O[C@@]3(C)CC[C@H]4[C@H](C)CC[C@@H]1[C@@]24OO3 [11b] . Its measured pIC50 is 5.03

Consider C[C@H]1[C@@H](OCCn2cc(COc3ccc4c(C(F)(F)F)cc(=O)oc4c3)nn2)O[C@@H]2O[C@@]3(C)CC[C@H]4[C@H](C)CC[C@@H]1[C@@]24OO3 [12b] . Its measured pIC50 is 4.61

Consider Cc1cc(=O)oc2cc(OCc3cn(CCCO[C@H]4O[C@@H]5O[C@@]6(C)CC[C@H]7[C@H](C)CC[C@@H]([C@H]4C)[C@@]57OO6)nn3)ccc12 [13a] . Its measured pIC50 is 5.02
